pIC50: −log10 of the molar value.
The following are reported pIC50 results, target or system serotonine receptor (Rattus norvegicus, UniProt P14842).
Measured property: pIC50

CN1CC(CN(CCN=[N+]=[N-])S(C)(=O)=O)CC2c3cccc4[nH]cc(c34)CC21 (centres unmarked) :: 8.60
CN1CC(CN(CCN=[N+]=[N-])S(C)(=O)=O)=CC2c3cccc4c3c(cn4C)CC21 (centres unmarked) :: 8.92
CN1CC(CN(CCN=[N+]=[N-])S(C)(=O)=O)CC2c3cccc4c3c(c(Br)n4C)CC21 (centres unmarked) :: 7.00
CN1CC(CN(CCN=[N+]=[N-])S(C)(=O)=O)CC2c3cccc4c3c(cn4C)CC21 (centres unmarked) :: 8.62
CN1CC(CN(CCOS(C)(=O)=O)S(C)(=O)=O)CC2c3cccc4c3c(cn4C)CC21 (centres unmarked) :: 6.97

###

Examples of compounds with documented ED50 follow.
- Experimental target: serotonine receptor (Rattus norvegicus)
- Assay remarks: in vivo
- Assay type: in vivo
- Design: For the in vivo studies the rat paw-oedema test was applied; from tissue; host or cells: live rat, paw
- Run conditions: po, read-out: In vivo test ED50, 50% inhibition of serotonine induced oedema
Measured property: ED50 (mg/kg)

CN1CC(CN(CCN=[N+]=[N-])S(C)(=O)=O)CC2c3cccc4[nH]cc(c34)CC21 (centres unmarked) :: 1.7
CN1CC(CN(CCN=[N+]=[N-])S(C)(=O)=O)CC2c3cccc4c3c(cn4C)CC21 (centres unmarked) :: 0.47
CN1CC(CN(CCN=[N+]=[N-])S(C)(=O)=O)CC2c3cccc4c3c(c(Br)n4C)CC21 (centres unmarked) :: 2
CN1CC(CN(CCN=[N+]=[N-])S(C)(=O)=O)=CC2c3cccc4c3c(cn4C)CC21 (centres unmarked) :: 3.7
CN1CC(CN(CCOS(C)(=O)=O)S(C)(=O)=O)CC2c3cccc4c3c(cn4C)CC21 (centres unmarked) :: 1

###

- Experimental target: serotonine receptor (Rattus norvegicus, UniProt P14842)
- Sequence (P14842 whole entry): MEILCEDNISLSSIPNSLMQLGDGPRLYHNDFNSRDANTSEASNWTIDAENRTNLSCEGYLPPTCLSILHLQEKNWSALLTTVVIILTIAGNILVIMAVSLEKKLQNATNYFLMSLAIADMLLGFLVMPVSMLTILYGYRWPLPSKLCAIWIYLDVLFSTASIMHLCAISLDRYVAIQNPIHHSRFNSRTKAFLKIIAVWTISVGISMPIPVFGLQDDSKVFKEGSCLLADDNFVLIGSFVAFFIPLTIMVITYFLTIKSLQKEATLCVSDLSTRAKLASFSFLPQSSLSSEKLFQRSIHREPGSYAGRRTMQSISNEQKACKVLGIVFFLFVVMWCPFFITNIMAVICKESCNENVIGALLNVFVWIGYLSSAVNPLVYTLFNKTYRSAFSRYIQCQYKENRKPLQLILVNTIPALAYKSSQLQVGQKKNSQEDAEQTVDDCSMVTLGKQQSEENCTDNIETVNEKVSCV
- Assay remarks: in vivo
- Format: in vivo
- Set-up: For the in vivo studies the rat paw-oedema test was applied; from tissue; host or cells: live rat, paw
- Run conditions: sc, read-out: In vivo test ED50, 50% inhibition of serotonine induced oedema
Measured property: ED50

CN1CC(CN(CCOS(C)(=O)=O)S(C)(=O)=O)CC2c3cccc4c3c(cn4C)CC21 (centres unmarked) [Example 9] :: 0.082 mg/kg
CN1CC(CN(CCN=[N+]=[N-])S(C)(=O)=O)CC2c3cccc4c3c(c(Br)n4C)CC21 (centres unmarked) [Example 11] :: 0.3 mg/kg
CN1CC(CN(CCN=[N+]=[N-])S(C)(=O)=O)=CC2c3cccc4c3c(cn4C)CC21 (centres unmarked) [Example 4] :: 0.22 mg/kg
CN1CC(CN(CCN=[N+]=[N-])S(C)(=O)=O)CC2c3cccc4c3c(cn4C)CC21 (centres unmarked) [Example 10] :: 0.042 mg/kg
CN1CC(CN(CCN=[N+]=[N-])S(C)(=O)=O)CC2c3cccc4[nH]cc(c34)CC21 (centres unmarked) [Example 7] :: 0.29 mg/kg

###

Examples of compounds with documented LD50 at 24 h follow.
- Assay remarks: acute toxicity (LD50) in mice
- Run conditions: mouse, in vivo, po, evaluated 24 hours after administration
Measured property: LD50 at 24 h (mg/kg)

CN1CC(CN(CCOS(C)(=O)=O)S(C)(=O)=O)=CC2c3cccc4[nH]cc(c34)CC21 (centres unmarked) :: 100
CN1CC(CN(CCN=[N+]=[N-])S(C)(=O)=O)=CC2c3cccc4[nH]cc(c34)CC21 (centres unmarked) :: 100
